So I've got a bunch of binders here, and I need their Efficacy EC50 (nM), inhibition of forskolin-induced cAMP formation values.
- study_system: human ORL1 receptor (human, UniProt P41146 1-370)
- Sequence (P41146 whole entry): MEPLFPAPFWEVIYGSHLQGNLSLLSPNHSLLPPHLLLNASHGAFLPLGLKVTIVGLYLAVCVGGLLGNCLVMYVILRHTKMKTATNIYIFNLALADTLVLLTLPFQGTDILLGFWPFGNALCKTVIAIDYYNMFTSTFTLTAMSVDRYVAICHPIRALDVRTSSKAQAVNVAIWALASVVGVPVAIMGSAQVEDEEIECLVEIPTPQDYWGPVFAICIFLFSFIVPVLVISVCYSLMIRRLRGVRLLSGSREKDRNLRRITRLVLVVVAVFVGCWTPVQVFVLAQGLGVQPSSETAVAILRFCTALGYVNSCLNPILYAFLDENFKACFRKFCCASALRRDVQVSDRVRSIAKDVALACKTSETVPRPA
- protocol: cell-based or functional assay
Give just the number in nM; leave the unit off.

Task item: Dear colleague, I am looking for the recorded Efficacy EC50 (nM), inhibition of forskolin-induced cAMP formation of the following binder: Ac-KYYRWKKKKKKK-NH2 [Compound 9 Ac-Lys-Tyr-Tyr-Arg-Trp-Lys-Lys-Lys-Lys-Lys-Lys-Lys-NH2]
Reply: 0.035

Task item: Another: Ac-RYYRWK-NH2 (Unconjugated comparison hexapeptide; also called Ac-RYYRWK-NH2) [Compound CE1 Ac-Arg-Tyr-Tyr-Arg-Trp-Lys-NH2]
Reply: 0.41

Task item: Entry Ac-RYYRWKKKKKKK-NH2 (also: trifluoroacetate salt, Synthetic peptide conjugate; the primary product is the trifluoroacetate salt; also called Compound I) [Compound 1 Ac-Arg-Tyr-Tyr-Arg-Trp-Lys-Lys-Lys-Lys-Lys-Lys-Lys-NH2] please
Reply: 0.58

Task item: Input Ac-KKKKKKKWRYYR-NH2 [Compound 6 Ac-Lys-Lys-Lys-Lys-Lys-Lys-Lys-Trp-Arg-Tyr-Tyr-Arg-NH2]
Reply: 135

Task item: Quick one: Ac-RYNRWKKKKKKK-NH2 [Compound 4 Ac-Arg-Tyr-Asn-Arg-Trp-Lys-Lys-Lys-Lys-Lys-Lys-Lys-NH2]
Reply: 91

Task item: And the next one, H-NEEEEERYYRWKKKKKKK-NH2 [Compound 3 H-Asn-Glu-Glu-Glu-Glu-Glu-Arg-Tyr-Tyr-Arg-Trp-Lys-Lys-Lys-Lys-Lys-Lys-Lys-NH2] ?
Reply: 83
